The entries below are paired with their reported Emax.
targetOrSystem: hFSH-R (Homo sapiens)
Construct: expressed in transfected cells; host or cells: CHO-3D2 cells (CHO-K1 parental line)
assayMethodText: cAMP accumulation (RIA) in CHO-3D2 cells (hFSH-R), hFSH-induced
Type: cell-based
studyConditions: read-out: cAMP % efficacy
reportedProperty: Emax (%)

INSERT INTO assay_data (structurestring, unitlabel, observedmeasurement) VALUES
  ('Cc1ccccc1-c1ccc(C(=O)N2Cc3ccc(C(=O)NCCc4ccc(O)cc4)n3Cc3ccccc32)cc1C', '%', 100),
  ('COc1cc(C(=O)N2Cc3ccc(C(=O)NCc4cccc(C)c4)n3Cc3ccccc32)ccc1-c1ccccc1C', '%', 80),
  ('COc1cc(C(=O)N2Cc3ccc(C(=O)NCc4ccc(F)cc4)n3Cc3ccccc32)ccc1-c1ccccc1C', '%', 95);

----------
targetOrSystem: hFSH-R (Homo sapiens, UniProt P23945)
Construct: expressed in transfected cells; host or cells: CHO-3D2 cells (CHO-K1 parental line)
assayMethodText: cAMP accumulation (RIA) in CHO-3D2 cells (hFSH-R), hFSH-induced
Assay type: cell-based
studyConditions: read-out: cAMP % efficacy
The entries below are paired with their reported Emax.
reportedProperty: Emax

INSERT INTO assay_data (compound, targetorsystem, observedmeasurement) VALUES
  ('COc1cccc(CNC(=O)c2ccc3n2Cc2ccccc2N(C(=O)c2ccc(-c4ccccc4C)c(C)c2)C3)c1 [Example 7]', 'hFSH-R (Homo sapiens, UniProt P23945)', '89%'),
  ('Cc1cccc(CNC(=O)c2ccc3n2Cc2ccccc2N(C(=O)c2ccc(-c4ccccc4C)c(C)c2)C3)c1 [Example 22]', 'hFSH-R (Homo sapiens, UniProt P23945)', '62%'),
  ('Cc1ccccc1-c1ccc(C(=O)N2Cc3ccc(C(=O)NCc4cccc(O)c4)n3Cc3ccccc32)cc1C [Example 10]', 'hFSH-R (Homo sapiens, UniProt P23945)', '97%'),
  ('Cc1ccc(CNC(=O)c2ccc3n2Cc2ccccc2N(C(=O)c2ccc(-c4ccccc4C)c(C)c2)C3)cc1 [Example 14]', 'hFSH-R (Homo sapiens, UniProt P23945)', '86%'),
  ('COc1ccccc1-c1ccc(C(=O)N2Cc3ccc(C(=O)NCC(c4ccccc4)N(C)C)n3Cc3ccccc32)cc1 (stereo not drawn) [Example 2]', 'hFSH-R (Homo sapiens, UniProt P23945)', '100%'),
  ('COc1cc(C(=O)N2Cc3ccc(C(=O)NCc4cccc(C(F)(F)F)c4)n3Cc3ccccc32)ccc1-c1ccccc1C [Example 42]', 'hFSH-R (Homo sapiens, UniProt P23945)', '74%'),
  ('Cc1ccccc1CNC(=O)c1ccc2n1Cc1ccccc1N(C(=O)c1ccc(-c3ccccc3C)c(C)c1)C2 [Example 17]', 'hFSH-R (Homo sapiens, UniProt P23945)', '88%'),
  ('COc1cc(C(=O)N2Cc3ccc(C(=O)NCc4ccc5c(c4)OCCO5)n3Cc3ccccc32)ccc1-c1ccccc1C [Example 64]', 'hFSH-R (Homo sapiens, UniProt P23945)', '79%'),
  ('COc1cc(C(=O)N2Cc3ccc(C(=O)NCc4ccc(C)cc4)n3Cc3ccccc32)ccc1-c1ccccc1C [Example 38]', 'hFSH-R (Homo sapiens, UniProt P23945)', '83%'),
  ('Cc1ccccc1-c1ccc(C(=O)N2Cc3ccc(C(=O)NCc4ccccc4)n3Cc3ccccc32)cc1C [Example 15]', 'hFSH-R (Homo sapiens, UniProt P23945)', '90%'),
  ('COc1cc(C(=O)N2Cc3ccc(C(=O)NCCc4ccc(O)cc4)n3Cc3ccccc32)ccc1-c1ccccc1C [Example 55]', 'hFSH-R (Homo sapiens, UniProt P23945)', '60%'),
  ('Cc1ccccc1-c1ccc(C(=O)N2Cc3ccc(C(=O)NCc4cccc(C(F)(F)F)c4)n3Cc3ccccc32)cc1C [Example 16]', 'hFSH-R (Homo sapiens, UniProt P23945)', '65%'),
  ('COc1cc(C(=O)N2Cc3ccc(C(=O)NCc4ccc5c(c4)OCO5)n3Cc3ccccc32)ccc1-c1ccccc1C [Example 40]', 'hFSH-R (Homo sapiens, UniProt P23945)', '90%'),
  ('COc1ccc(CNC(=O)c2ccc3n2Cc2ccccc2N(C(=O)c2ccc(-c4ccccc4C)c(C)c2)C3)cc1 [Example 8]', 'hFSH-R (Homo sapiens, UniProt P23945)', '63%'),
  ('Cc1ccccc1-c1ccc(C(=O)N2Cc3ccc(C(=O)NCc4ccc5c(c4)OCO5)n3Cc3ccccc32)cc1C [Example 23]', 'hFSH-R (Homo sapiens, UniProt P23945)', '77%');

----------
targetOrSystem: human FSH receptor (Homo sapiens, UniProt P23945)
Construct: host or cells: CHO-K1 (CHO FSH-R 6CRE-Luc, 1D7 cells)
Sequence (P23945 18-695): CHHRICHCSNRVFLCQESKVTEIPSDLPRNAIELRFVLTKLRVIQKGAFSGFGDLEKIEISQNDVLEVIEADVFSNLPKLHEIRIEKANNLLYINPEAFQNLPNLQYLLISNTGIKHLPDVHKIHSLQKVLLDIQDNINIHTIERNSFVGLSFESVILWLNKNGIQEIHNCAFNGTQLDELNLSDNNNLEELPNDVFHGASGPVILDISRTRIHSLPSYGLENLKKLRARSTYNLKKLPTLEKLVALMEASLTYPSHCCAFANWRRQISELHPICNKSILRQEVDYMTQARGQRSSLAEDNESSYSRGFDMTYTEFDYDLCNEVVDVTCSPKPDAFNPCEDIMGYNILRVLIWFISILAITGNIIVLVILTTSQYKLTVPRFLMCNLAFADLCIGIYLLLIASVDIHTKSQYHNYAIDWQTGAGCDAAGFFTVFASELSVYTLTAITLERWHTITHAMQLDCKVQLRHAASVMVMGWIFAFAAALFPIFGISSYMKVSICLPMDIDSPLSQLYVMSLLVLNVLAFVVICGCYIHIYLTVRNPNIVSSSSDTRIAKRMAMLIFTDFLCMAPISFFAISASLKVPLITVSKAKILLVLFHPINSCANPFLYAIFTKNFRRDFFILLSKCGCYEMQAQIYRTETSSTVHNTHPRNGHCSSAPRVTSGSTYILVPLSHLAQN
assayMethodText: Follicle-Stimulating Hormone Receptor-Dependent Cre-Luciferase Reporter Gene Assay (CHO FSH-R 6CRE-Luc cells)
Type: cell-based
studyConditions: 2-dose format; concentration in parentheses 30 μM; inhibition of the response to EC50 of FSH
reportedProperty: inhibition at 30 µM

INSERT INTO results (compound, observedmeasurement) VALUES
  ('O=C(NCc1ccc2c(c1)OCO2)c1ccc2n1Cc1ccccc1N(C(=O)CSc1ccc(Br)cc1)C2 [Example 84]', '27%'),
  ('COc1cc(C(=O)N2Cc3ccc(C(=O)NCc4ccc(C)cc4C)n3Cc3ccccc32)ccc1-c1ccccc1C [Example 46]', '44%'),
  ('COc1ccccc1-c1ccc(C(=O)N2Cc3ccc(C(=O)N[C@@H](CO)c4ccccc4)n3Cc3ccccc32)cc1 [Example 4]', '9%'),
  ('Cc1ccc(CNC(=O)c2ccc3n2Cc2ccccc2N(C(=O)COc2ccc(Cl)cc2)C3)cc1 [Example 70]', '17%'),
  ('O=C(NC1CCCc2ccccc21)c1ccc2n1Cc1ccccc1N(C(=O)CSc1ccc(Br)cc1)C2 (stereo not drawn) [Example 87]', '3%'),
  ('COc1cc(C(=O)N2Cc3ccc(C(=O)NCc4ccc(Cl)cc4)n3Cc3ccccc32)ccc1-c1ccccc1C [Example 43]', '56%'),
  ('O=C(NCc1ccc2c(c1)OCO2)c1ccc2n1Cc1ccccc1N(C(=O)COc1ccc(Cl)cc1)C2 [Example 69]', '21%'),
  ('O=C(NCCc1ccc(O)cc1)c1ccc2n1Cc1ccccc1N(C(=O)CSc1ccc(Br)cc1)C2 [Example 86]', '35%'),
  ('COc1cc(CNC(=O)c2ccc3n2Cc2ccccc2N(C(=O)COc2ccc(Cl)cc2C)C3)ccc1O [Example 78]', '33%'),
  ('O=C(NCc1cccc(C(F)(F)F)c1)c1ccc2n1Cc1ccccc1N(C(=O)CSc1ccc(Br)cc1)C2 [Example 85]', '24%'),
  ('COc1ccccc1-c1ccc(C(=O)N2Cc3ccc(C(=O)N[C@H](CO)c4ccccc4)n3Cc3ccccc32)cc1 [Example 5]', '14%'),
  ('Cc1cccc(CNC(=O)c2ccc3n2Cc2ccccc2N(C(=O)COc2ccc(Cl)cc2)C3)c1 [Example 71]', '7%'),
  ('Cc1ccccc1-c1ccc(C(=O)N2Cc3ccc(C(=O)NCc4ccc(Cl)cc4)n3Cc3ccccc32)cc1C [Example 18]', '58%'),
  ('O=C(Nc1ccc(-c2ccccc2)cc1)c1ccc2n1Cc1ccccc1N(C(=O)COc1ccc(Cl)cc1)C2 [Example 74]', '6%'),
  ('Cc1ccccc1-c1ccc(C(=O)N2Cc3ccc(C(=O)NCc4ccc(OC(F)(F)F)cc4)n3Cc3ccccc32)cc1C [Example 19]', '30%');
